Tested on: OVCAR-8
TEST_PROTOCOL: NCI tumour cell line growth inhibition, 48 h
Calls of active or inactive are those of the source. No stated cut-off is given here; in the data, active = GI50 up to about 1.1 µM and inactive = higher.
The molecules listed here are annotated with their GI50.

MOLECULE: COc1ccc2c(c1)CCN=C2c1ccccc1CCCCl
REPORTED_RESULT: 16.8 µM (inactive)
--
MOLECULE: c1ccc2cc3c(cc2c1)OP1(Oc2cccc4cccnc24)(O3)Oc2cc3ccccc3cc2O1
REPORTED_RESULT: 3.56 µM (inactive)
--
MOLECULE: O=c1ccn(C2OC(CN(O)CCC3C(CO)OC(n4ccc(=O)[nH]c4=O)C3O)C(O)C2O)c(=O)[nH]1 (stereo not given)
REPORTED_RESULT: > 100 µM (inactive)
--
MOLECULE: C[N+](C)(N)CCC[N+](C)(C)N
REPORTED_RESULT: > 100 µM (inactive)

**Q:** What measured GI50 goes with O=c1cccccc1O.O=c1cccccc1O.O=c1cccccc1O.[SiH4] ?
**A:** 11.5 µM (inactive)

**Q:** What measured GI50 goes with CCOC(=O)[C@@H]1ON2O[C@H](OC3CCCC3(c3ccccc3)c3ccccc3)C[C@H]3OC(=O)[C@@H]1C32 (stereo not given in full) ?
**A:** 35.3 µM (inactive)

**Q:** What measured GI50 goes with CO/N=C(\C)c1ccc(Nc2nc3ccccc3c3occc23)cc1 ?
**A:** 16.7 µM (inactive)

**Q:** What measured GI50 goes with COc1cc2c(cc1O)C(c1cc(O)c(O)c(OC)c1)C(O)(C(=O)O)C(CO)C2O (stereo not given) ?
**A:** > 100 µM (inactive)

**Q:** What measured GI50 goes with COC(=O)[C@H]1C=C[C@@H](C)n2c(=O)c3ccccc3c(=O)n21 ?
**A:** > 100 µM (inactive)

**Q:** What measured GI50 goes with c1ccc(COc2ccc(C[P+](c3ccccc3)(c3ccccc3)c3ccccc3)cc2)cc1 ?
**A:** 0.163 µM (active)

###

The compounds listed here are annotated with their GI50.
Tested on: UACC-257
TEST_PROTOCOL: NCI tumour cell line growth inhibition, 48 h
Calls of active or inactive are those of the source. Rule as the data show it: active = GI50 up to about 1.1 µM and inactive = higher.

COMPOUND: CN(C)c1ccc(/C=C(\NC(=O)c2ccccc2)C2=NC(CCC(=O)O)C(=O)O2)cc1 (stereo not drawn)
GI50: > 50 µM (inactive)

**Q:** What measured GI50 goes with c1ccc([P+](CCNCCNCC[P+](c2ccccc2)(c2ccccc2)c2ccccc2)(c2ccccc2)c2ccccc2)cc1 ?
**A:** > 100 µM (inactive)

**Q:** What measured GI50 goes with Clc1ccc(C2=NCON=C2c2ccc(Cl)cc2)cc1 ?
**A:** 25.1 µM (inactive)

###

Tested on: EKVX
TEST_PROTOCOL: NCI tumour cell line growth inhibition, 48 h
Activity calls are given as the source filed them. Rule as the data show it: active = GI50 up to about 1.1 µM and inactive = higher.
The molecules listed here are annotated with their GI50.

MOLECULE: COc1ccc(C2C3=C(COC3=O)OC(C)(C)Oc3cc4c(cc32)OCO4)cc1OC (stereo not given)
GI50: 28.5 µM (inactive)
--
MOLECULE: CC(=O)CC(=O)CCC(=O)Nc1cccc(C(F)(F)F)c1
GI50: > 100 µM (inactive)
--
MOLECULE: CC(=O)Nc1ccc(S(=O)(=O)/N=C2\C=CC(=O)c3ccccc32)cc1
GI50: 6 µM (inactive)
--
MOLECULE: N[C@H]1CCc2c1nc1c(c2-c2ccccc2)CC[C@@H]1N
GI50: > 100 µM (inactive)
--
MOLECULE: C#CC1(O)c2ccccc2C(=O)c2ccccc21
GI50: > 100 µM (inactive)

**Q:** What measured GI50 goes with CCCCCN(CCCCC)C(=O)[C@@H](CCC(=O)OCc1ccccc1)NC(=O)c1cc2ccccc2[nH]1 ?
**A:** > 100 µM (inactive)

**Q:** What measured GI50 goes with CCCC(CCC(=O)O)(CCC(=O)O)[N+](=O)[O-] ?
**A:** > 100 µM (inactive)

**Q:** What measured GI50 goes with Cc1cc(C)nc(NS(=O)(=O)c2ccc(NC(=O)c3ccc4nc5ccccc5c(Nc5ccc(S(=O)(=O)Nc6nc(C)cc(C)n6)cc5)c4c3)cc2)n1 ?
**A:** > 100 µM (inactive)

**Q:** What measured GI50 goes with CCCCCCOc1ccc(C(=O)NOC)cc1 ?
**A:** > 100 µM (inactive)

**Q:** What measured GI50 goes with C=C(C)[C@@]1(OC(=O)c2cc([N+](=O)[O-])cc([N+](=O)[O-])c2)C[C@@H]2CCCC[C@@H]21 ?
**A:** 37.2 µM (inactive)

###

Tested on: KM12
TEST_PROTOCOL: NCI tumour cell line growth inhibition, 48 h
The source made the active and inactive calls. Cut-off read from the data, not from the text of the source: active = GI50 up to about 1.1 µM and inactive = higher.
PROPERTY_MEASURED: GI50

MOLECULE: Clc1cccc(Cl)c1/C=N/C12CC3CC(CC(C3)C1)C2
GI50: > 10 µM (inactive)

**Q:** What measured GI50 goes with COC(CN(C)C(=O)C(C)NC(=O)c1ccccc1)OC (stereo not given) ?
**A:** > 100 µM (inactive)

**Q:** What measured GI50 goes with O=c1[nH]ncc2[nH]c3c4ccccc4ccc3c12 ?
**A:** 37.4 µM (inactive)

**Q:** What measured GI50 goes with CC(=O)c1[nH]c(NC(C)C)c(C(=S)Nc2ccccc2)c1N ?
**A:** 29.6 µM (inactive)

**Q:** What measured GI50 goes with CCOC(=O)C1(C(=O)OCC)OC(=O)NC2=C1CCCC2 ?
**A:** > 100 µM (inactive)

**Q:** What measured GI50 goes with CC1=NN(C(=O)c2ccc(Cl)cc2)C(=O)/C1=C/c1c(O)cc(O)c2ccccc12 ?
**A:** > 100 µM (inactive)

###

The molecules listed here are annotated with their GI50.
Tested on: SR
TEST_PROTOCOL: NCI tumour cell line growth inhibition, 48 h
Activity calls are given as the source filed them. Cut-off read from the data, not from the text of the source: active = GI50 up to about 1.1 µM and inactive = higher.

MOLECULE: Sc1nn2c(COc3cccc(OCc4nnc5sc(S)nn45)c3)nnc2s1
PROPERTY_MEASURED: GI50
REPORTED_RESULT: 17.4 µM (inactive)
//
MOLECULE: CC(C)=CCC\C(C)=C/C=C/C(C)=C\C=C\C(C)=C/C=C/C=C(C)\C=C\C=C(C)/C=C/C=C(/C)CCC=C(C)C
PROPERTY_MEASURED: GI50
REPORTED_RESULT: > 100 µM (inactive)

**Q:** What measured GI50 goes with COc1ccc(C(=O)N(C(=O)N2CCN(c3ccccc3)CC2)S(=O)(=O)c2ccccc2)cc1 ?
**A:** 18.8 µM (inactive)

**Q:** What measured GI50 goes with CC1C(=NO)C(C)C(c2ccccc2)N(N=O)C1c1ccccc1 (stereo not given) ?
**A:** 15.5 µM (inactive)

**Q:** What measured GI50 goes with CC1(C)Oc2ccc(NC(=O)CCC(N)C(=O)O)cc2O1 (stereo not given) ?
**A:** > 100 µM (inactive)

###

The compounds listed here are annotated with their GI50.
Tested on: HL-60
TEST_PROTOCOL: NCI tumour cell line growth inhibition, 48 h
Activity calls are given as the source filed them. Rule as the data show it: active = GI50 up to about 1.1 µM and inactive = higher.

COMPOUND: O=C(c1ccccc1)N1C(=S)NC(=N/c2ccccc2)/C1=N\c1ccccc1
PROPERTY_MEASURED: GI50
REPORTED_RESULT: > 100 µM (inactive)
--
COMPOUND: OC1/C(=C/c2ccccc2)CNC/C1=C\c1ccccc1 (stereo unspecified)
PROPERTY_MEASURED: GI50
REPORTED_RESULT: 92.7 µM (inactive)
--
COMPOUND: O=[N+]([O-])/C(Cl)=C(\NCCO)C(Cl)=C(Cl)Cl
PROPERTY_MEASURED: GI50
REPORTED_RESULT: 4.35 µM (inactive)
--
COMPOUND: O=C(c1cccs1)N1CCCN(C(=O)c2cccs2)C1=S
PROPERTY_MEASURED: GI50
REPORTED_RESULT: > 100 µM (inactive)
--
COMPOUND: COC(=O)[C@H]1C=C[C@@H](C)n2c(=O)c3ccccc3c(=O)n21
PROPERTY_MEASURED: GI50
REPORTED_RESULT: > 100 µM (inactive)

Now look at this entry.
**Q:** What measured GI50 goes with COc1ccc(-c2nc3c(nc2-c2ccc(OC)cc2)C(N)=NS(=O)(=O)N3)cc1 ?
**A:** > 100 µM (inactive)

###

Test system: SW-620
TEST_PROTOCOL: NCI tumour cell line growth inhibition, 48 h
Activity calls are given as the source filed them. Rule as the data show it: active = GI50 up to about 1.1 µM and inactive = higher.
PROPERTY_MEASURED: GI50

Solved cases (2 shown):
MOLECULE: CC(=O)OC/C=C/Cn1nc(Br)c(=O)[nH]c1=O
PROPERTY_MEASURED: GI50
REPORTED_RESULT: > 100 µM (inactive)

MOLECULE: COc1ccc2c(c1)C(N)=C(Cc1ccncc1)C2=O
PROPERTY_MEASURED: GI50
REPORTED_RESULT: > 100 µM (inactive)

**Q:** What measured GI50 goes with COC(CC1(OC)OC(=O)C=C1N)OC (stereo unspecified) ?
**A:** > 100 µM (inactive)

**Q:** What measured GI50 goes with CSCSCC(N)CO.Cc1[nH]c(=O)[nH]c(=O)c1/C=C/C(=O)O ?
**A:** > 625 µM (inactive)

**Q:** What measured GI50 goes with c1ccc2cc3c(cc2c1)OP1(Oc2cccc4cccnc24)(O3)Oc2cc3ccccc3cc2O1 ?
**A:** 2.81 µM (inactive)

**Q:** What measured GI50 goes with Nc1ncnc2c1ncn2C1CCC(COS(N)(=O)=O)C1 (stereo unspecified) ?
**A:** > 100 µM (inactive)
